- Tested on: NCI-H226
- test-summary: NCI tumour cell line growth inhibition, 48 h
Calls of active or inactive are those of the source. Cut-off read from the data, not from the text of the source: active = GI50 up to about 1.1 µM and inactive = higher.
Each entry below carries its reported GI50.

Observe how each entry below is paired with its result.
INSERT INTO results (smiles_entry, observed_measurement) VALUES
  ('O=C1CSc2cc([N+](=O)[O-])ccc2N1', '> 100 µM (inactive)'),
  ('CC(C)C(=O)/C=C/S/C=C/C(=O)C(C)C', '7 µM (inactive)');

Please report GI50 for the following compound: "CCc1nc(N)nc(N)c1-c1ccc(N2CCNCC2)cc1" > 100 µM (inactive)

###

- Test system: OVCAR-8
- test-summary: NCI tumour cell line growth inhibition, 48 h
The source made the active and inactive calls. Cut-off read from the data, not from the text of the source: active = GI50 up to about 1.1 µM and inactive = higher.
metric: GI50

Observe how each entry below is paired with its result.
INSERT INTO results (compound, metric, observed_measurement) VALUES
  ('CCC(=O)c1c(NOC2OCC(OC(C)=O)C(OC(C)=O)C2OC(C)=O)nc(OC)n(C)c1=O (stereo not given)', 'GI50', '> 100 µM (inactive)'),
  ('COc1cc(OC)cc(-c2nc(O)c3ccccc3n2)c1', 'GI50', '24.6 µM (inactive)'),
  ('O=C(c1ccc(O)c([N+](=O)[O-])c1)c1ccc(O)c([N+](=O)[O-])c1', 'GI50', '> 100 µM (inactive)'),
  ('O=C1CSc2cc([N+](=O)[O-])ccc2N1', 'GI50', '> 100 µM (inactive)'),
  ('COc1cc(C2c3cc4c(cc3[C@@H](Nc3cccc([N+](=O)[O-])c3)C3COC(=O)[C@H]23)OCO4)cc(OC)c1O (stereo not given in full)', 'GI50', '2.51 µM (inactive)'),
  ('CC1(C)C=[N+]([O-])C(C)(C)N1', 'GI50', '> 100 µM (inactive)'),
  ('CC1=NN(c2cccc(Cl)c2)C2(C1=Cc1ccccc1)C(Cl)C(=O)N2c1nc2ccccc2s1 (stereo not given)', 'GI50', '32.1 µM (inactive)'),
  ('O=S(O)CCCCSSCCCCS(=O)(=O)S', 'GI50', '37.8 µM (inactive)');

Please report GI50 for the following compound: COC(=O)C1CCC2(C)[C@H](CCC3O[C@]32C)[C@@]1(C)CC(=O)c1ccoc1 (stereo not given in full) > 100 µM (inactive)

Please report GI50 for the following compound: "Nc1nc(Cl)cc(NCC2(O)CC2)n1" > 100 µM (inactive)
